target: Protein translocase subunit SecA (Escherichia coli (strain K12)); assay: Assay to Identify E. coli SecA ATPase Inhibitors; assay type: functional; set-up: scale not given: direction of the effect not stated beside the values; details: 30 µM
Entries with a potency or affinity are not part of this list.
Percent Effect for assorted compounds
Write down the numeric answer in % and omit the unit.

Known Percent Effect results, listed for orientation:
[[record]]
compound = "Cc1ccc(CN2CCOC3(COCCN(CCN(C)C)C3)C2)o1 (stereo unspecified)"
recorded_measurement = -3.53

[[record]]
compound = "Cc1cccnc1NC(=O)NCc1ccc(N2CCNC(=O)C2)cc1"
recorded_measurement = -3.51

[[record]]
compound = "CCOCCC(=O)N1CCCC(c2ncc[nH]2)C1 (stereo unspecified)"
recorded_measurement = -3.07

[[record]]
compound = "Cc1cnn(CCNCc2ccccc2C#N)c1"
recorded_measurement = -7.98

[[record]]
compound = "CN1Cc2c(C(=O)Nc3cccnc3)ncn2-c2ccccc2S1(=O)=O"
recorded_measurement = -1.38


Query: Quick one: Percent Effect for `Cc1cnccc1N1CCCN(C(=O)CCCc2cn[nH]c2)CC1` ?
Result: -2.89

Provenance of the data: ChEMBL document CHEMBL3988442
